B1: Osa-1-4 twister ribozyme (parent)
chain: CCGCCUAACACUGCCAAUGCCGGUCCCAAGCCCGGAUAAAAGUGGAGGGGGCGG

Variants of: B1
Test: self-cleavage, relative activity (ratio to wild type); higher = more cleavage; co-transcriptional
# self-cleavage values compiled below
readout.type: self-cleavage

1. A41G G22C : 0.05
2. C32A U24C : 0.04
3. A8U C33G : 0.04
4. A39C G44U : 0.88
5. A40G A7U : 0.08
6. G22U U12C : 0.1
7. G30U G45C : 0.02
8. A16C G22U : 0.31
9. G30A U18G : 0.06
10. A7G G54U : 0.36
11. A46C C27G : 0.01
12. G22C G53A : 0.06
13. C9A U12C : 0.1
14. A7G G48U : 0.05
15. A8U C26A : 0.03
16. G49C G54C : 0.05
17. C52U G49A : 0.21
18. A10G G51C : 0.08
19. A10U A29G : 0.03
20. A7C G54A : 0.05
21. A46G G23A : 0.05
22. A40U C15U : 0.1
23. G22A G44A : 0.94
24. G30A U37C : 0.03
25. C26U G34C : 0.56
26. A29U A38U : 0.09
27. C26G G49U : 0.04
28. A17G G35A : 0.79
29. C14A G42A : 0.05
30. A10G G45A : 0.17
31. G45C U37C : 0.08
32. A39G A46G : 0.06
33. A16U A38G : 0.94
34. G23A G42U : 0.05
35. A29C U24A : 0.04
36. C52U U18C : 1
37. C11U G54A : 0.78
38. G22C U18C : 0.1
39. A41C G35A : 0.81
40. C27A G54A : 0.12
41. A8U C11G : 0.08
42. G13C G48A : 0.01
43. C52A C9A : 0.55
44. A39G G19U : 0.26
45. A40U G51A : 0.18
46. C15A G48C : 0.04
47. A28G G35A : 0.21
48. C14A G54U : 0.22
49. A17G A38C : 0.96
50. A46C G35A : 0.06
51. C26G C27A : 0.05
52. C26A G42C : 0.03
53. C11U C32G : 0.08
54. A28C C27G : 0.05
55. A36C C15U : 0.12
56. A16C G50A : 0.71
57. A38G C27U : 0.18
58. G34A G54U : 0.7
59. C27U C32G : 0.05
60. C27U G50U : 0.12
61. U12G U43A : 0.08
62. G47C G53A : 0.1
63. A40U A41U : 0.83
64. A39G G23C : 0.07
65. C32U C9A : 0.02
66. A28C A41C : 0.91
67. G19U G35C : 0.6
68. C32U U43C : 0.06
69. C14A U24A : 0.03
70. G13C U43A : 0.03
71. G49A U24G : 0.01
72. G23A G45U : 0.06
73. C9U G22C : 0.03
74. G53A U18G : 0.65
75. C15G C21G : 0.05
76. A29U G48A : 0.03
77. C32U G53A : 0.09
78. C25G C27A : 0.02
79. C21U U12G : 0.26
80. C14G G53U : 0.06
81. A10U C32U : 0.02
82. A41C U18A : 0.92
83. C9G G22A : 0.15
84. A41C G35U : 0.76
85. C31A G34C : 0.04
86. C15A U43C : 0.1
87. C20G G45U : 0.02
88. C33A G49C : 0.04
89. A17U C26A : 0.06
90. A36G C20A : 0.87
91. A7G G13U : 0.02
